- targetOrSystem: F protein of human metapneumovirus strain JPS05-21 (type B2), on infectious virus (human metapneumovirus, strain JPS05-21 …)
- experiment: cell-based or functional assay
assayMetric: IC90, neutralizing activity (hMPV infection of LLC-MK2 cells; GraphPad Prism 6) (µg/mL)

[
  {
    "binder": "EV046136 (antibody, human IgG1, kappa, V domains shown) VH: QVQLVQSGAEMKKPGASVKVSCKASGYTFTDYFIHWVRQAPGQGLEWMGWVNPNSGATNYAQKFQGRVTMTGDTSLSAAYVDLSRLSSDDSAVYYCARDRGLGISSTRNDAFDIWGQGTTVTVSS VL: DIQLTQSPSSLSASVGDRVTITCQPSQGIRNFLNWYQQKPGKAPNLLIYDASNLETGVASRFSGSGSGTHFTLTISSLQPEDIATYFCQQYHSLPLTFGGGTKVEIKR",
    "unitSpec": "µg/mL",
    "observedResult": 1.78
  },
  {
    "binder": "EV046147 (antibody, human IgG1, lambda, V domains shown) VH: QVQLVQSGAEVKKPGASVKVSCKASGYTFSVYGISWVRQAPGHGLEWMGWISAYNGDRGYAQKVQGRITMTTDTSASTAYMELRSLTSDDTAVYYCATTSSGVPGIYWGQGSLVTVSS VL: SYALVQPPSVSVSPGQTARITCFGPALPKKYAYWYQHKSGQAPMLVIYEDTKRPSGIPQRFSGSTSGATATLTIRGAQVEDEADYYCYSTDSSGHERVFGGGTKLTVLG",
    "unitSpec": "µg/mL",
    "observedResult": 0.612
  },
  {
    "binder": "EV046130 (antibody, human IgG1, lambda, V domains shown) VH: QVQLVESGGGVAQPGRSLRLSCAASGFTLSNYGMHWVRQAPGKGLEWVAVIWYDGRNKYYADSVKGRFTISRDDFKNTLDLQMNSLRAEDTAVYYCARDQHAGITMIEDWGQGTLVTVSS VL: QSALTQPPSASGSPGQSVTISCTGTSSDVGYFKYVSWYQQHPGKAPKLLIYEVSKRPSGVPDRFSGSRSGNTASLTVSGLQADDEADYYCGSYAGNNNIIFGGGTKLTVLG",
    "unitSpec": "µg/mL",
    "observedResult": 0.358
  },
  {
    "binder": "EV046120 (antibody, human IgG1, lambda, V domains shown) VH: EVQLVESGGGLVKPGGSLRLSCAASGFTFSSYSMNWVRQAPGKGLEWVSSISSSSSYIYYADSLKGRFTVSRDNAKKSLYLQMNSLRAEDTAVYYCARVDYGTNSEVGRFDPWGQGTLVTVSS VL: QSVLTQPPSVSGTPGQRVTISCTGSSSNIGAGYAVHWYQQLPGTAPKLLIYDSINRPSGVPDRFSGSKSGTSASLAITGLQTEDEADYYCHSYDRSLSGSVFGGGTKLTVLG",
    "unitSpec": "µg/mL",
    "observedResult": 0.694
  },
  {
    "binder": "EV046124 (antibody, human IgG1, lambda, V domains shown) VH: QVQLVQSGTELKKPGASVKVSCKASGYTFTDYSMHWLRQAPGESLEWMGWVNGGPLDTKYSPTFQDRVSFSRDVFATTAYMDLSSLGPEDTAVYYCARGWGITAYRGDAFDLWGQGTMVIVSS VL: SFVLTQPPSVSVAPGKSARITCGASNIESKSVHWYQQKPGQAPVVVVYDDDDRPSGIPERFSGSNSGNTATLIINRVEVGDEADYYCQVWDSTSDMYVFGAGTKVTVLG",
    "unitSpec": "µg/mL",
    "observedResult": 0.677
  }
]
